The origin of these recorded values is patent US20230303690A1.

Target: T1, human LAG3 expressed on cells (human, UniProt P18627 23-525)
T1 construct: whole, on cells
T1 sequence (looked up): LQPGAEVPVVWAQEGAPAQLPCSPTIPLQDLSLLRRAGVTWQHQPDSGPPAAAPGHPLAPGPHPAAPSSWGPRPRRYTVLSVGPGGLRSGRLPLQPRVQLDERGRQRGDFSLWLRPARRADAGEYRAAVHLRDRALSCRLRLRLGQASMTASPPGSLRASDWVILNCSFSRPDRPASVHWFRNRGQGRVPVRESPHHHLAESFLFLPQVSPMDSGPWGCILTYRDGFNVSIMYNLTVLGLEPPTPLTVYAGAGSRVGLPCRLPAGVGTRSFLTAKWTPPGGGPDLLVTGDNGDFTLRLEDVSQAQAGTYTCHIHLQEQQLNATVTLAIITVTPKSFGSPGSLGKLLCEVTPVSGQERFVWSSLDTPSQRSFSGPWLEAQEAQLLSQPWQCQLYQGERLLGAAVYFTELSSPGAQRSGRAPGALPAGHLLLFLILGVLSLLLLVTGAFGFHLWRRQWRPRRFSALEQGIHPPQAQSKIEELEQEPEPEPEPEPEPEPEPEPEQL
Assay: FACS, 293T-hLAG3 cells
Listed binders paired with reported FACS signal at 0.061 nM
Answer field: number only, no words.

Request: Need FACS signal at 0.061 nM of sdAb No. 27 (VHH, Fc of the tested form not described; also called sdAb 27; not shown: Fc part implied by anti-human Fc capture and anti-human IgG Fc detection) VHH: QVQLVESGGGLVQPGGSLRLSCAASGFTLDYYAIGWFRQAPGKEREGVSCIRSSDGSTYYADSVKGRFTISSDNTKNTVYLQMNSLKPEDTAVYYCATDRYSDCRGPYENWGQGTQVTVSS , thanks.
Response: 163

Request: What about this binder? sdAb No. 27-H1B3 (VHH, Humanized sdAb No. 27-H1; not shown: Fc part implied by anti-human IgG Fc detection) VHH: QVQLVESGGGLVQPGGSLRLSCAASGFTLDYYAIGWFRQAPGKEREGVSCIRSSDASTYYADSVKGRFTISSDNSKNTVYLQMNSLRAEDTAVYYCATDRYSDCRGPYENWGQGTMVTVSS
Response: 234

Request: What about this binder? sdAb No. 25-B7 (VHH, Humanized sdAb No. 25; not shown: Fc part implied by anti-human IgG Fc detection) VHH: QLQLVESGGGLVKPGGSLRLSCAASGSIESFSFMGWYRQAPGKQRELVAGFTGAASLSFSTYTDAVKGRFTISRDNAKNSVYLQMNSLRAEDTAVYFCNVDPWSQSWPGRYWGQGTTVTVSS
Response: 191

Request: What about this binder? sdAb No. 25 (VHH, Fc of the tested form not described; also called sdAb 25; sdAb #25; not shown: Fc part implied by anti-human Fc capture and anti-human IgG Fc detection) VHH: QLQLVESGGGLVQAGGSLRLSCAASGSIESFSFMGWYRQAPGKQRELVAGFTGAASLSFSTYTDAVKGRFTISRDNAKNTVYLQMNSLKPEDTAVYFCNVDPWSQSWPGRYWGQGTQVTVSS
Response: 99.2
